Data origin, for the record: paper PMC7187626

Parameter: Vd/F. Scope: all listed entries.
- ASSAY_EXPLANATION: Noncompartmental pharmacokinetic analysis of plasma concentrations after single oral dose of artefenomel and DSM265 in combination
- Type: in vivo, human
- CONDITIONS: human, plasma, oral, cohort 2 (n = 5), 200 mg artefenomel plus 50 mg DSM265; read-out: Vz/F (apparent volume of distribution, terminal phase), geometric mean
- Procedure: Plasma samples were analyzed by liquid chromatography-tandem mass spectrometry (HPLC-MS/MS) as previously described ([2], [4]). […] These provide an estimate of the efficacy of an antimalarial treatment; with the former being the ratio of the parasite density decrease over a 48-h period (expressed as the log10 transformed cohort-specific PRR48 [log10 PRR48]). […]
ASSAY_ENDPOINT: Vd/F (L)

1. c1cc([C@H]2CC[C@]3(CC2)OO[C@]2(O3)C3CC4CC(C3)CC2C4)ccc1OCCN1CCOCC1 7990
2. Cc1cc(Nc2ccc(S(F)(F)(F)(F)F)cc2)n2nc(C(C)(F)F)nc2n1 26
